- tested.system: T1, recombinant human CD300LB overexpressed on Jurkat cells (human, UniProt A8K4G0 18-201)
- T1 construct: also called huCD300LB; huCD300LB-expressing Jurkat cells
- T1 sequence: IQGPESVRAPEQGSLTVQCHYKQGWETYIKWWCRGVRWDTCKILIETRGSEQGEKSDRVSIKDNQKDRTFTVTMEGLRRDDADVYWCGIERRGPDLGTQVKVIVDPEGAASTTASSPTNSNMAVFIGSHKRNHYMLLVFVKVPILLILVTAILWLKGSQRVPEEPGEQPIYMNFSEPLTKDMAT
- measurement.protocol: flow cytometry on Jurkat cells overexpressing huCD300LB, apparent KD (Drake & Klakamp fit)
- Procedure: Purified anti-CD300LB antibodies of the present disclosure were evaluated for their binding affinity to either Jurkat cells overexpressing recombinant huCD300LB or BaF/3 cells overexpressing recombinant muCD300LB. Binding of anti-CD300LB antibodies to the cells was determined as follows. Cells were harvested, washed, and labeled with propidium iodide for viability discrimination. […]
Consider the following binders and their measured Kd readings.
observation.type: Kd (nM)

# binder, assay.value
records = [
    ("anti-CD300LB antibody CD-06 (antibody, V domains shown) VH: QVQLVQSGAEVKKPGASVKVSCKASGYTFTTYAVHWVRQAPGQGLEWMGIVNPNSGGTNYAQKFQGRVTMTRDTSTSTVYMELSSLRSEDTAVYYCARDIVPMNNFYNYYYGMDVWGQGTTVTVSS VL: DIQMTQSPSSLSASVGDRVTITCRASQSISSYLNWYQQKPGKAPKLLIYATSTLQSGVPSRFSGSGSGTDFTLTISSLQPEDFATYYCQQSYRIPYTFGQGTKVEIK", 329),
    ("anti-CD300LB antibody CD-08 (antibody, V domains shown) VH: EVQLLESGGGLVQPGGSLRLSCAASGFTFSNAWMSWVRQAPGKGLEWVSVISGSGGRTYYADSVKGRFTISRDNSKNTLYLQMNSLRAEDTAVYYCARDGTTVAPKGMDVWGQGTTVTVSS VL: DIQMTQSPSSLSASVGDRVTITCQASQDINNYVNWYQQKPGKAPKLLIYAASNLQSGVPSRFSGSGSGTDFTLTISSLQPEDFATYYCQQSYSPPYTFGQGTKLEIK", 45),
]
